assay.details: Percent competition for binding to preformed microtubules by 4 uM as against 2 uM of 3[H]paclitaxel
Format: functional
Recorded measurements of Activity, one per entry
Record the value in %, omitting the unit from your answer.

Answered examples (5):
Fill in Activity for record CC(=O)O[C@H]1C(=O)[C@@]2(C)[C@H]([C@H](OC(=O)c3ccccc3)[C@]3(O)C[C@H](OC(=O)[C@H](O)[C@@H](NC(=O)c4ccccc4)c4ccccc4)C(C)=C1C3(C)C)[C@]1(OC(C)=O)CO[C@@H]1C[C@@H]2O
37

Give Activity for the following compound: C=C/C=C\[C@H](C)[C@H](OC(N)=O)[C@@H](C)[C@H](O)[C@@H](C)C/C(C)=C\[C@H](C)[C@@H](O)[C@@H](C)/C=C\[C@@H](O)C[C@@H]1OC(=O)[C@H](C)[C@@H](O)[C@H]1C [DISERMOLIDE]
32

Please give measured Activity of the following entry: CCCCCC[C@H](OC(N)=O)[C@@H](C)[C@H](O)CC/C=C\C(C)[C@@H](O)[C@@H](C)/C=C\CC[C@@H]1O[C@@H](OC)[C@H](C)[C@@H](OCOC)[C@@H]1C (some centres undefined)
9

Respond only with Activity recorded for C=C/C=C\C(C)C(OC(N)=O)[C@@H](C)[C@H](O)[C@@H](C)C/C(C)=C\C(C)[C@@H](O)[C@@H](C)/C=C\C(O)C[C@@H]1OC(=O)[C@H](C)[C@@H](O)[C@H]1C (some centres undefined)
64

Query Activity for C=C/C=C\[C@H](C)[C@H](OC(N)=O)[C@@H](C)[C@H](O)CC/C=C\C(C)[C@@H](O)[C@@H](C)/C=C\CC[C@@H]1OC(=O)[C@H](C)[C@@H](O)[C@@H]1C (some centres undefined)
21

Continuing:
Entry COCO[C@H]1[C@@H](C)[C@H](CC/C=C\[C@H](C)[C@H](O)[C@@H](C)/C=C\CC[C@@H](O)[C@H](C)COC(N)=O)OC(=O)[C@@H]1C needs its Activity filled in; supply it.
13

Tell us which Activity value is on record for C=C/C=C\[C@H](C)[C@H](OC(N)=O)[C@@H](C)[C@H](O)CC/C=C\C(C)[C@@H](O)[C@@H](C)/C=C\CC[C@@H]1O[C@@H](OC)[C@H](C)[C@@H](OCOC)[C@@H]1C (some centres undefined)
19

Indicate the recorded Activity value for this compound: CCCCCC(C)(C)[C@H](OC(N)=O)[C@@H](C)[C@H](O)CC/C=C\C(C)[C@@H](O)[C@@H](C)/C=C\CC[C@@H]1O[C@@H](OC)[C@H](C)[C@@H](OCOC)[C@@H]1C (some centres undefined)
15

// Input: C=C/C=C\[C@H](C)[C@H](OC(N)=O)[C@@H](C)[C@H](O)CC/C=C\C(C)[C@@H](O)[C@@H](C)/C=C\CC[C@@H]1OC(=O)[C@H](C)[C@@H](OCOC)[C@@H]1C (some centres undefined) . Output its Activity only.
57
